Target: T1, human ROR1 (Receptor Tyrosine Kinase-Like Orphan Receptor 1) on the cell surface (human, UniProt Q01973 30-937)
T1 construct: whole, on cells; engineered into B16-F10 (high density) and LS174T (low density) cells; also called B16-F10-ROR1-H; LS174T-ROR1-L
T1 sequence (Q01973 30-937): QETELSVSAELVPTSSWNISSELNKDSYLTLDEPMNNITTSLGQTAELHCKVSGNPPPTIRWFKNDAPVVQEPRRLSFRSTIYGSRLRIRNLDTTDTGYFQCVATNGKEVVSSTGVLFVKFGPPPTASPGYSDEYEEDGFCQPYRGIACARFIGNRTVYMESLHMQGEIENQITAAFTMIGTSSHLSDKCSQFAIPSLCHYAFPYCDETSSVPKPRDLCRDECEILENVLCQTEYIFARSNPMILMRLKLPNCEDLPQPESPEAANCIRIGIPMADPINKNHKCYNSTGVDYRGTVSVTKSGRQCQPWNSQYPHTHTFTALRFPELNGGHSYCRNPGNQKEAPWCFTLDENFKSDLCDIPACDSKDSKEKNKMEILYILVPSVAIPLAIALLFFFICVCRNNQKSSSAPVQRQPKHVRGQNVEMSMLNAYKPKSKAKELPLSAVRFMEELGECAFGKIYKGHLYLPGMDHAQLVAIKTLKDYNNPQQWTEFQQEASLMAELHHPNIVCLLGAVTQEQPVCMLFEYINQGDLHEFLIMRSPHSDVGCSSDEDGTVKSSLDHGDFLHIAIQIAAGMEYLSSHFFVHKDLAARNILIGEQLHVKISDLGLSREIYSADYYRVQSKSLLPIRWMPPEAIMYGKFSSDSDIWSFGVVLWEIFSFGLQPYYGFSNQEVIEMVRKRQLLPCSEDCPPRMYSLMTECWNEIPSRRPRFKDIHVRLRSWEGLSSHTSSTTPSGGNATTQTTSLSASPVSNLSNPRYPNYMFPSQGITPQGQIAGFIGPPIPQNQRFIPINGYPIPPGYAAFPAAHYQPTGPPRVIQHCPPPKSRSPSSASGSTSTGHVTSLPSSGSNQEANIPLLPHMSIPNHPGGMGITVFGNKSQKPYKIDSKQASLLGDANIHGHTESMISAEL
Assay: flow cytometry, B16-F10 cells expressing human ROR1 (high density)
ASSAY READOUT: MFI

>>> result_value("BI-HU9-HK-1 h5A1 Fc (Fc fusion, VHH-Fc format; not shown: Fc of the VHH-Fc format) EVQLLESGGGLVQPGGSLRLSCAASGYTNRLKCMGWFRQAPGKEREEVASISTGTGNTYYADSVKGRFTISQDKSKNTLYLQMNSLKAEDTAVYYCAADVRPDGTTCHYNSRGQGTLVTVSS")
136000
>>> result_value("FUSE-562 (h2A11-HK4 Fc) (Fc fusion, VHH-Fc format; not shown: Fc of the VHH-Fc format) EVQLLESGGGLVQPGGSLRLSCAASGSTYSANCMGWFRQAPGKERELASMSIRSGRTYYSDSVKGRFTISRDGSKNTLYLQMNSLKAEDTAVYYCAAAYGGSRCVYNYRGQGTLVTVSS")
155000
>>> result_value("BI-HU9-VH9-1 h5A1 Fc (Fc fusion, VHH-Fc format; not shown: Fc of the VHH-Fc format) EVQLLESGGGLVPRGGSLRLSCTASGYTNRLKCMGWFRQAPGKEREEIATISTGTGNTYYADSVKGRFTISQDKSRNTLYLQMKTLRAEDTAVYYCAADVRPDGTTCHYNSWGQGTQVTVSS")
16600
>>> result_value("FUSE-560 (h2A11-HK2 Fc) (Fc fusion, VHH-Fc format; not shown: Fc of the VHH-Fc format) EVQLLESGGGLVQPGGSLRLSCAASGSTYSANCMGWFRQAPGKERELASMSIRSGRTYYADSVKGRFTISRDSSKNTLYLQMNSLKAEDTAVYYCAAAYGGSRCVYNYRGQGTLVTVSS")
159000
>>> result_value("FUSE-179 (5A1 VHH-human-Fc fusion protein) (Fc fusion, VHH-human-Fc fusion; non-humanized 5A1; not shown: human Fc) QVQLQESGGGSVQAGGSLKLSCTASGYTNRLKCMGWFRQAPGKEREEIATISTGTGNTYYADSVKGRFTFSQDKVKNTVYLQMNTLKPDDTGMYYCAADVRPDGTTCHYNSGGQGTQVTVSS")
93800
>>> result_value("FUSE-112 (2A11 VHH-human-Fc fusion protein) (Fc fusion, VHH-human-Fc fusion; non-humanized 2A11; also called 2A11-Fc; not shown: human Fc) QVQLQESGGGSVPAGGSLRLSCAASGSTYSANCMGWFRQAPGKEREEVASMSIRSGRTYYSDSVKGRFTISQDGSKNTLYLQLNSLKAEDTALYYCAAAYGGSRCVYNYRGQGTQVTVSS")
208000
>>> result_value("FUSE-561 (h2A11-HK3 Fc) (Fc fusion, VHH-Fc format; not shown: Fc of the VHH-Fc format) EVQLLESGGGLVQPGGSLRLSCAASGSTYSANCMGWFRQAPGKERELASMSIRSGRTYYADSVKGRFTISRDSSKNTLYLQMNSLRAEDTAVYYCAAAYGGSRCVYNYRGQGTLVTVSS")
157000
>>> result_value("BI-HU9-VH9 h5A1 Fc (Fc fusion, VHH-Fc format; same VHH as FUSE-497; not shown: Fc of the VHH-Fc format) EVQLLESGGGLVPRGGSLRLSCTASGYTNRLKCMGWFRQAPGKEREEIATISTGTGNTYYADSVKGRFTISRDNSRNTLYLQMKTLRAEDTAVYYCAADVRPDGTTCHYNSWGQGTQVTVSS")
14400
>>> result_value("FUSE-559 (h5A1-FA9-HK1 Fc) (Fc fusion, VHH-Fc format; also called humanized clone 5A1-FA9-HK1; not shown: Fc of the VHH-Fc format) EVQLLESGGGLVQPGGSLRLSCTASGYTNRLKCMGWFRQAPGKEREEIASISTGTGNTYYADSVKGRFTISRDKSRNTLYLQMNTLRAEDTAVYYCAADVRPHGTTCHYNSRGQGTQVTVSS")
199000
>>> result_value("BI-HU9-VHH31 h5A1 Fc (Fc fusion, VHH-Fc format; not shown: Fc of the VHH-Fc format) EVQLVESGGGLVQPGGSLRLSCAASGFTVRLKCMGWFRQAPGKGLEEVATISTGTGNTYYADSVKGRFTISRDNSKNTLYLQMNSLRAEDTAVYYCAADVRPDGTTCHYNSWGQGTTVTVSS")
17900
